# maps each entry to its % Absorption
Details: oral 3H-paclitaxel 9 mg/kg; cyclosporin dose 2 × 5 mg/kg oral
Your answer should be a plain number; it is taken to be in %.

Sample records with % Absorption:
smi=C/C=C/C[C@@H](C)[C@@H](O)[C@H]1C(=O)N[C@@H]([C@@H](C)O)C(=O)N(C)CC(=O)N(C)[C@@H](CC(C)C)C(=O)N[C@@H](C(C)C)C(=O)N(C)[C@@H](CC(C)C)C(=O)N[C@@H](C)C(=O)N[C@H](C)C(=O)N(C)[C@@H](CC(C)C)C(=O)N(C)[C@@H](CC(C)C)C(=O)N(C)[C@@H](C(C)C)C(=O)N1C observed_measurement=34.5
smi=C/C=C/C[C@@H](C)[C@@H](OC(C)=O)[C@H]1C(=O)N[C@@H](CC)C(=O)N(C)CC(=O)N(C)[C@@H](CC(C)C)C(=O)N[C@@H](C(C)C)C(=O)N(C)[C@@H](CC(C)C)C(=O)N[C@@H](C)C(=O)N[C@H](C)C(=O)N(C)[C@@H](CC(C)C)C(=O)N(C)[C@@H](CC(C)C)C(=O)N(C)[C@@H](C(C)C)C(=O)N1C observed_measurement=25.4
smi=C/C=C/C[C@@H](C)[C@@H](O)[C@H]1C(=O)N[C@@H](CC)C(=O)N(C)CC(=O)N(C)[C@@H](CC(C)C)C(=O)N[C@@H](C(C)C)C(=O)N[C@@H](CC(C)C)C(=O)N[C@@H](C)C(=O)N[C@H](C)C(=O)N(C)[C@@H](CC(C)C)C(=O)N(C)[C@@H](CC(C)C)C(=O)N(C)[C@@H](C(C)C)C(=O)N1C observed_measurement=15.2

Alright, here's another compound for you.
In: Using the record for `C/C=C/C[C@@H](C)[C@@H](O)[C@H]1C(=O)N[C@@H](CCC)C(=O)N(C)CC(=O)N(C)[C@@H](CC(C)C)C(=O)N[C@@H](C(C)C)C(=O)N(C)[C@@H](CC(C)C)C(=O)N[C@@H](C)C(=O)N[C@H](C)C(=O)N(C)[C@@H](CC(C)C)C(=O)N(C)[C@@H](CC(C)C)C(=O)N(C)[C@@H](C(C)C)C(=O)N1C` , report its % Absorption.
Out: 40.0
